System: carrageenan-induced paw edema
Procedure Details: carrageenan-induced paw edema technique (anti-inflammatory)
Format: in vivo
Run Parameters: 1 h

Molecule | Mean edema thickness / mm
CSCC[C@H](NC(=O)C(C)c1ccc(CC(C)C)cc1)C(=O)O (some centres unmarked) [Compound 5i] | 0.93
CSCC[C@H](NC(=O)C(C)c1ccc(CC(C)C)cc1)C(=O)Nc1ccc(O)cc1 (some centres unmarked) [Compound 7i] | 0.81
CC(C)Cc1ccc(C(C)C(=O)N[C@H](C(=O)Nc2ccc(O)cc2)C(C)C)cc1 (some centres unmarked) [Compound 7h] | 1.09
CC(C)Cc1ccc(C(C)C(=O)N[C@@H](CCC(N)=O)C(=O)O)cc1 (some centres unmarked) [Compound 5j] | 0.92
CC(C)Cc1ccc(C(C)C(=O)NCCC(=O)O)cc1 (centres unmarked) [Compound 5c] | 0.70
CC(C)Cc1ccc(C(C)C(=O)N[C@H](C(=O)O)C(C)C)cc1 (some centres unmarked) [Compound 5h] | 1.09
CC(C)Cc1ccc(C(C)C(=O)NCC(=O)O)cc1 (centres unmarked) [Compound 5a, (2-(4-Isobutylphenyl)propanoyl)glycine] | 0.58
CC(C)Cc1ccc(C(C)C(=O)N[C@@H](CC(C)C)C(=O)O)cc1 (some centres unmarked) [Compound 5g] | 1.17

----------
System: acetic acid-induced abdominal writhing
Procedure Details: acetic acid-induced abdominal writhing technique (peripheral analgesic)
Type: in vivo
Run Parameters: Relative to indomethacin

Compound | Potency
CC[C@H](C)C(NC(=O)C(C)c1ccc(CC(C)C)cc1)C(=O)O (stereo in doubt) | 85
CC(C)Cc1ccc(C(C)C(=O)NCCC(=O)O)cc1 (stereo not shown) | 8
CC(C)Cc1ccc(C(C)C(=O)N[C@@H](CCC(N)=O)C(=O)Nc2ccc(O)cc2)cc1 (stereo partly shown) | 34
CC(C)Cc1ccc(C(C)C(=O)NCCCC(=O)O)cc1 (stereo not shown) | 7
CC(C)Cc1ccc(C(C)C(=O)NCCC(=O)Nc2ccc(O)cc2)cc1 (stereo not shown) | 115
CC(C)Cc1ccc(C(C)C(=O)N[C@@H](Cc2ccccc2)C(=O)Nc2ccc(O)cc2)cc1 (stereo partly shown) | 134
CSCC[C@H](NC(=O)C(C)c1ccc(CC(C)C)cc1)C(=O)Nc1ccc(O)cc1 (stereo partly shown) | 128
CC[C@H](C)[C@@H](NC(=O)C(C)c1ccc(CC(C)C)cc1)C(=O)Nc1ccc(O)cc1 (stereo partly shown) | 155
CC(C)Cc1ccc(C(C)C(=O)NCCCC(=O)Nc2ccc(O)cc2)cc1 (stereo not shown) | 77
CC(C)Cc1ccc(C(C)C(=O)N[C@H](C(=O)O)C(C)C)cc1 (stereo partly shown) | 54
COc1ccc2c(c1)c(CC(=O)O)c(C)n2C(=O)c1ccc(Cl)cc1 [Indomethacin, reference compound] | 100
CC(C)Cc1ccc(C(C)C(=O)N[C@@H](CCC(N)=O)C(=O)O)cc1 (stereo partly shown) | 3
CC(C)Cc1ccc(C(C)C(=O)N[C@@H](C)C(=O)Nc2ccc(O)cc2)cc1 (stereo partly shown) | 132
CC(C)Cc1ccc(C(C)C(=O)NCC(=O)Nc2ccc(O)cc2)cc1 (stereo not shown) | 139
CC(C)Cc1ccc(C(C)C(=O)N[C@@H](CC(C)C)C(=O)Nc2ccc(O)cc2)cc1 (stereo partly shown) | 144
CC(C)Cc1ccc(C(C)C(=O)N[C@@H](C)C(=O)O)cc1 (stereo partly shown) | 80
CC(C)Cc1ccc(C(C)C(=O)N[C@H](C(=O)Nc2ccc(O)cc2)C(C)C)cc1 (stereo partly shown) | 137
CSCC[C@H](NC(=O)C(C)c1ccc(CC(C)C)cc1)C(=O)O (stereo partly shown) | 40
CC(C)Cc1ccc(C(C)C(=O)N[C@@H](Cc2ccccc2)C(=O)O)cc1 (stereo partly shown) | 84
CC(C)Cc1ccc(C(C)C(=O)NCC(=O)O)cc1 (stereo not shown) | 83
CC(C)Cc1ccc(C(C)C(=O)O)cc1 (stereo not shown) [Ibuprofen, reference compound] | 93
CC(C)Cc1ccc(C(C)C(=O)N[C@@H](CC(C)C)C(=O)O)cc1 (stereo partly shown) | 89

----------
Items are presented alongside their recorded melting point.

Compound | melting point (°C)
CC(C)Cc1ccc(C(C)C(=O)N[C@H](C(=O)Nc2ccc(O)cc2)C(C)C)cc1 (stereo partly drawn) | 202.2
CC[C@H](C)[C@@H](NC(=O)C(C)c1ccc(CC(C)C)cc1)C(=O)Nc1ccc(O)cc1 (stereo partly drawn) | 205
CC(C)Cc1ccc(C(C)C(=O)N[C@@H](C)C(=O)Nc2ccc(O)cc2)cc1 (stereo partly drawn) | 193.7
CC(C)Cc1ccc(C(C)C(=O)N[C@@H](CCC(N)=O)C(=O)O)cc1 (stereo partly drawn) | 67.4
CC(C)Cc1ccc(C(C)C(=O)NCCC(=O)Nc2ccc(O)cc2)cc1 (stereo not drawn) | 155.5
CC(C)Cc1ccc(C(C)C(=O)NCCCC(=O)Nc2ccc(O)cc2)cc1 (stereo not drawn) | 140.6

----------
Tested on: hot plate
Procedure Details: hot plate technique (central analgesic)
Assay type: in vivo
Run Parameters: After 60 min.

Compound | Target Or Test System | % protection
CC(C)Cc1ccc(C(C)C(=O)O)cc1 (stereo not shown) [Ibuprofen, reference compound] | hot plate | (30.5) %
CC(C)Cc1ccc(C(C)C(=O)N[C@@H](Cc2ccccc2)C(=O)O)cc1 (stereo partly shown) [Compound 5e] | hot plate | (30.5) %

The values you see were collected from patent US11850220B2.
